B1: Far upstream element-binding protein 3, residues 75 to 150; numbered along this chain, Q96I24 (parent)
chain: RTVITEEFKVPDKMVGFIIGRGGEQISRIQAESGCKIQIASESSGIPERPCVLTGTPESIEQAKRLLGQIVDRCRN

Variants of: B1
Test: abundance fitness (aPCA) (normalised: wild type 0, dead -1); higher = more abundant; growth selection in yeast, the domain comes from the species named
Conditions: Homo sapiens
This listing pairs variants with measured abundance fitness.
API note: the answer field is a bare number with no unit suffix.

variant-description: C35F
quantity-measured: abundance fitness
experimental-value: -1.06

variant-description: R75K
quantity-measured: abundance fitness
experimental-value: 0.043

variant-description: I70Y
quantity-measured: abundance fitness
experimental-value: 0.044

variant-description: D72T
quantity-measured: abundance fitness
experimental-value: -0.1

(Q) State, in one line, measured abundance fitness of "I37K"
(A) -0.522

(Q) Output abundance fitness of "Q38D"
(A) -0.092

(Q) Consider the variant "E58M" and give its recorded abundance fitness.
(A) -0.128

(Q) Fill in abundance fitness for record "G16Y"
(A) -0.135

(Q) Hello, please tell me recorded abundance fitness for this one: "P47C"
(A) -0.027
